A collection of compounds and their measured inhibition at 10 µM
# measurement-target: D3 receptor (Homo sapiens, UniProt P35462)
# Construct: expressed in transfected cells; host or cells: HEK-293
# Sequence (P35462 whole entry): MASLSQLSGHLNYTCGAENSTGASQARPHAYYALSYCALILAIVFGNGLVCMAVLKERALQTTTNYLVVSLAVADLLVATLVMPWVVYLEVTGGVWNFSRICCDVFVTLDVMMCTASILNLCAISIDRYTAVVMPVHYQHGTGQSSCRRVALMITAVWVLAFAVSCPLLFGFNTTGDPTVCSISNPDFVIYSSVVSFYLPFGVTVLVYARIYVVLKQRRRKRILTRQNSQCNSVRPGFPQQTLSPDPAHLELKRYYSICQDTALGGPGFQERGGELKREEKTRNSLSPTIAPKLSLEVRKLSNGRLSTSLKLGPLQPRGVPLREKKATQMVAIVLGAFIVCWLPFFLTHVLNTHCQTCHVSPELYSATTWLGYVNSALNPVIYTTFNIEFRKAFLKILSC
# assay-summary: D3 receptor assay ([3H]-Spiperone, HEK-293 cells)
# Type: binding
# applied-conditions: final concentration 10 μmol/L; [3H]-Spiperone; HEK-293 cells
Please answer using a numeric value trailed by its unit.

Would you please look over these solved cases?
{"smiles": "Cc1cc(=O)oc2c(Cl)c(OCCCN3CCN(c4nsc5ccccc45)CC3)ccc12", "inhibition at 10 µM": "104%"}
{"smiles": "O=c1cc(C(F)(F)F)c2ccc(OCCCCN3CCN(c4nsc5ccccc45)CC3)cc2o1", "inhibition at 10 µM": "103%"}
{"smiles": "O=c1cc(-c2ccccc2)c2ccc(OCCCN3CCN(c4nsc5ccccc45)CC3)cc2o1", "inhibition at 10 µM": "103%"}
{"smiles": "O=c1ccc2ccc(OCCCCN3CCC(c4noc5cc(F)ccc45)CC3)cc2o1", "inhibition at 10 µM": "97.6%"}
{"smiles": "Cc1cc(=O)oc2cc(OCCCN3CCC(c4noc5cc(F)ccc45)CC3)ccc12", "inhibition at 10 µM": "101%"}

Kindly review the next compound as well.
For this compound ( Cc1cc(=O)oc2cc(OCCCCN3CCC(c4noc5cc(F)ccc45)CC3)ccc12 ), measured inhibition at 10 µM is 100%

Values compiled from patent US9315496B2.
